Where these numbers come from: patent US20240208937A1

# assay target: WIZ (Widely interspaced zinc finger) (Homo sapiens (Human), UniProt O95785+Q96SW2)
# Sequence (O95785 whole entry, one chain of several): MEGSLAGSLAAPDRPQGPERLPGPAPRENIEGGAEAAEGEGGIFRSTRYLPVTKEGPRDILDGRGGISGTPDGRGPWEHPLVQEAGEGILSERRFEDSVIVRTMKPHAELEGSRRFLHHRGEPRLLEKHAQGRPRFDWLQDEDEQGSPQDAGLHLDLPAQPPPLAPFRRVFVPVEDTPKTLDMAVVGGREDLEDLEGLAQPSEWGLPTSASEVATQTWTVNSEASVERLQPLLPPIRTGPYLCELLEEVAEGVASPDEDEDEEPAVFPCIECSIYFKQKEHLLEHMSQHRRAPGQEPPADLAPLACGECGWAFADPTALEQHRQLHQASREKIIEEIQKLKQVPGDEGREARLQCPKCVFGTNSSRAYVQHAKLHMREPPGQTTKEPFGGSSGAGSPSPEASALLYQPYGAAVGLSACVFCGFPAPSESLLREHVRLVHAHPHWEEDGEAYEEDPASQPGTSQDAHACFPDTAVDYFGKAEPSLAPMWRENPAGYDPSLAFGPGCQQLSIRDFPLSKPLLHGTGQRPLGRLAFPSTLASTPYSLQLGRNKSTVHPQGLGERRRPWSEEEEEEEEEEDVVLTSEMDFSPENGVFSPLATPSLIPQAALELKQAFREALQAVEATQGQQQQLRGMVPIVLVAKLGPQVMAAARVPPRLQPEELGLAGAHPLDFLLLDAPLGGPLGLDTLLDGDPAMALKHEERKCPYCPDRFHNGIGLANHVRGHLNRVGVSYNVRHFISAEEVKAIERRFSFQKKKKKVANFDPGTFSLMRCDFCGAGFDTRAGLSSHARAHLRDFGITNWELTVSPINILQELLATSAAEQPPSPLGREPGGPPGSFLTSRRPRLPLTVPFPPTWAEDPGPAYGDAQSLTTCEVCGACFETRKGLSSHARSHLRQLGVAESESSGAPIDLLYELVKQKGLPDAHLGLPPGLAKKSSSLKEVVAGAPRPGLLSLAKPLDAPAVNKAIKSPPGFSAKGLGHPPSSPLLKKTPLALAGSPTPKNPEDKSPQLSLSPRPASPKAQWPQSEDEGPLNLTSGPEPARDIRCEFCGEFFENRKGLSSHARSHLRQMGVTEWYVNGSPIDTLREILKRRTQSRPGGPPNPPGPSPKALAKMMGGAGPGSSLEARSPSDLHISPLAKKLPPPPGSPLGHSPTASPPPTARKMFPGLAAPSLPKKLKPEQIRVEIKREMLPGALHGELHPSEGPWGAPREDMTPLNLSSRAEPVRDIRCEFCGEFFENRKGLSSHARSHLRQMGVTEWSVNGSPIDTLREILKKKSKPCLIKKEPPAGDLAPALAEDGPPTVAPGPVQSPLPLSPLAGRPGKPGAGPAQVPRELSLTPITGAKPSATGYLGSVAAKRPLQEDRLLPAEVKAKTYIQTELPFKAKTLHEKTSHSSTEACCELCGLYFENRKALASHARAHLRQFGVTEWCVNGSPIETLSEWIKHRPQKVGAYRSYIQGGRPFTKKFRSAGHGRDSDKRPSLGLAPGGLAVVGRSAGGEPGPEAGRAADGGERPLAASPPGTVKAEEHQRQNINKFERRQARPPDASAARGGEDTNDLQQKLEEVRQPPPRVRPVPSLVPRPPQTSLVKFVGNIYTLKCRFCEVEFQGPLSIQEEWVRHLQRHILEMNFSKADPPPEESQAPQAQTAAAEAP
# test method notes: HUDEP-2 WIZ HiBiT degradation assay
# Type: cell-based
# particulars: HUDEP-2 WIZ HiBiT cells, 24 hours treatment, luminescence; read-out: WIZ EC50
Catalogue of DC50 values

Worked examples, 3 molecules total:
| molecule | DC50 |
| --- | --- |
| COc1nccc(-c2cc3c(cc2Nc2cccc4c2C(=O)N(C2CCC(=O)NC2=O)C4=O)N(C)C(=O)CC3)c1F (stereo not shown) | 10 to 100 nM |
| O=C1CCC(N2C(=O)c3cccc(Nc4cc5cnn(C6CCOCC6)c5cc4-c4ccnc(C(F)F)c4)c3C2=O)C(=O)N1 (stereo not shown) | > 100 nM |
| CN(C)C1CCc2ccc(Nc3cccc4c3C(=O)N([C@@]3(C)CCC(=O)NC3=O)C4=O)cc21 (stereo partly shown) | 10 to 100 nM |

# context switch: different molecule, same DC50
Give DC50 for the following molecule: Cn1ncc2cc(Nc3cccc4c3C(=O)N(C3CCC(=O)NC3=O)C4=O)c(Oc3ccc(F)cc3)cc21 (stereo not shown)
10 to 100 nM

* * *

Catalogue of pEC50 values
# assay target: ZBTB7A (Zinc Finger And BTB Domain Containing 7A) (Homo sapiens (Human), UniProt O95365+Q96SW2)
# Sequence (O95365 whole entry, the tested form may be a part): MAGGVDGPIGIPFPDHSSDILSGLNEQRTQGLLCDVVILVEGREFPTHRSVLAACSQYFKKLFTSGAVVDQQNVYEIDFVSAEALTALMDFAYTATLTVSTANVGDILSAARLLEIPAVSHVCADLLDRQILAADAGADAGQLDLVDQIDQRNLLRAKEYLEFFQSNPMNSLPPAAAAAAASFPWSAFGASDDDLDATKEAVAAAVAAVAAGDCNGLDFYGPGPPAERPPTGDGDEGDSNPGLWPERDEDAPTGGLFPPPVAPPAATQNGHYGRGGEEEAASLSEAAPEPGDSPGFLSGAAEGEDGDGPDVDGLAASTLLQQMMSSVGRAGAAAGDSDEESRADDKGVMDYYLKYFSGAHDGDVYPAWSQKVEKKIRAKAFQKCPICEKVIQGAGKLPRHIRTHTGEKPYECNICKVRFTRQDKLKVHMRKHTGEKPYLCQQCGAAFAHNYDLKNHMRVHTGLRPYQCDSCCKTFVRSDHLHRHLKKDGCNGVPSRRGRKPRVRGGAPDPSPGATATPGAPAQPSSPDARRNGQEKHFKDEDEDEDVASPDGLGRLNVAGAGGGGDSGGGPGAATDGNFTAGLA
# Sequence (Q96SW2 whole entry, the tested form may be a part): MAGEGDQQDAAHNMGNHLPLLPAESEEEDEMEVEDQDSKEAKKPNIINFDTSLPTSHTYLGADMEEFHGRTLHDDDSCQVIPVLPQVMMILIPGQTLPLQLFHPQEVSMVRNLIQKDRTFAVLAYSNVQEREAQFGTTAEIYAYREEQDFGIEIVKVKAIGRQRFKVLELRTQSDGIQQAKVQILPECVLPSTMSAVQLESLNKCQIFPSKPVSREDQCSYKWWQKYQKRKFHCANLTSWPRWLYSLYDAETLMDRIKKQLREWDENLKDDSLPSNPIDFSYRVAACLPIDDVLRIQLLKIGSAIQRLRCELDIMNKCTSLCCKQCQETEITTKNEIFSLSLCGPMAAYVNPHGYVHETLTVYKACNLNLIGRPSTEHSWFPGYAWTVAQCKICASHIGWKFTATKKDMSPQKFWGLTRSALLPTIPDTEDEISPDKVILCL
# Sequence (Q16531 whole entry partner, the tested form may be a part): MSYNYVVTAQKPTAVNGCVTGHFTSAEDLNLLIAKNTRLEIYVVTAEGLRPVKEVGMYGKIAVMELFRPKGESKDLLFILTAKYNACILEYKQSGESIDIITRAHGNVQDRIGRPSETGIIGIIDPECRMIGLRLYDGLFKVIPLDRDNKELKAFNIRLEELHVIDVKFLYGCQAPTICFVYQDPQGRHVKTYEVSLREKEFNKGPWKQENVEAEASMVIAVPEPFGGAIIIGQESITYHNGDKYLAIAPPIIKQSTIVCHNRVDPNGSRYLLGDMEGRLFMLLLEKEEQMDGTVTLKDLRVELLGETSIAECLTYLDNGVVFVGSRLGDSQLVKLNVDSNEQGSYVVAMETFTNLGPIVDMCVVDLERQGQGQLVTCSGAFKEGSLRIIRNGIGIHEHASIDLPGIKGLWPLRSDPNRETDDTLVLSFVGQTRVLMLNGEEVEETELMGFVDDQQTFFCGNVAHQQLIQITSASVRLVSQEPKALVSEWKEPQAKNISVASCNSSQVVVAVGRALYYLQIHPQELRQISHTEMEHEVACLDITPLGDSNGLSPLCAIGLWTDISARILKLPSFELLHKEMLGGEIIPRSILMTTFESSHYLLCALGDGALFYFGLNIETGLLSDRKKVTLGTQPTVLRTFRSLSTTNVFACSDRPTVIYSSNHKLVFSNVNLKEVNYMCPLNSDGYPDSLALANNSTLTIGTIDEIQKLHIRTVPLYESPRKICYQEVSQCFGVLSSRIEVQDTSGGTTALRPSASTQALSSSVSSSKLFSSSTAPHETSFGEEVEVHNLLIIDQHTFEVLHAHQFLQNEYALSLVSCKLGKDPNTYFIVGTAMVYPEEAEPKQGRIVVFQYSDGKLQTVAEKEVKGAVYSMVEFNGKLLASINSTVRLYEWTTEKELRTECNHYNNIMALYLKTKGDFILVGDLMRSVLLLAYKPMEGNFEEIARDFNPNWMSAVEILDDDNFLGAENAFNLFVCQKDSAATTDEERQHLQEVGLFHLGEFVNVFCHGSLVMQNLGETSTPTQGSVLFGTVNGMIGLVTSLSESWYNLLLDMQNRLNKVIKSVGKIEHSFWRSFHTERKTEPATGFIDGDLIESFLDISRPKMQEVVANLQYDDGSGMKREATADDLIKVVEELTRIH
# test method notes: HUDEP-2 ZBTB7A HiBiT degradation assay
# Assay type: cell-based
# particulars: HUDEP-2 ZBTB7A HiBiT cells, 24 hours treatment, luminescence
pEC50: −log10 of the molar value.

| compound | pEC50 |
| --- | --- |
| Cc1nccc(-c2cc3c(cc2Nc2cccc4c2C(=O)N(C2CCC(=O)NC2=O)C4=O)N(C)C(=O)CC3)c1Cl (stereo not shown) [Compound 47] | > 7.52 |

Give pEC50 for the following compound: CN1C(=O)CCc2cc(-c3cnn(C)c3)c(Nc3cccc4c3C(=O)N(C3CCC(=O)NC3=O)C4=O)cc21 (stereo not shown) [Compound 36]
> 7.52

Give pEC50 for the following compound: Cc1cc(-c2cc3c(cc2Nc2cccc4c2C(=O)N(C2CCC(=O)NC2=O)C4=O)c(C)nn3C)ccn1 (stereo not shown) [Compound 3]
> 7.52

Give pEC50 for the following compound: Cn1ncc2cc(Nc3cccc4c3C(=O)N(C3CCC(=O)NC3=O)C4=O)c(-c3cccc(C(F)(F)F)c3)cc21 (stereo not shown) [Compound 28]
< 7.00

* * *

# assay target: WIZ (Widely interspaced zinc finger) (Homo sapiens (Human), UniProt O95785+Q96SW2)
# test method notes: HUDEP-2 WIZ HiBiT degradation assay
# Assay type: cell-based
# particulars: HUDEP-2 WIZ HiBiT cells, 24 hours treatment, luminescence; read-out: WIZ EC50
Catalogue of DC50 values

Worked examples, 3 molecules total:
| molecule | DC50 |
| --- | --- |
| Cc1cc(-c2cc3c(cnn3C)cc2Nc2cccc3c2C(=O)N(C2CCC(=O)NC2=O)C3=O)cnn1 (centres unmarked) [Compound 24] | > 100 nM |
| Cc1nn(C)cc1-c1cc2c(cc1Nc1cccc3c1C(=O)N([C@H]1CCC(=O)NC1=O)C3=O)N(C)C(=O)CC2 [Compound 38] | 10 to 100 nM |
| CC1(N2C(=O)c3cccc(Nc4cccc(COc5ccccc5)c4)c3C2=O)CCC(=O)NC1=O (centres unmarked) [Compound 54] | > 100 nM |

Give DC50 for the following molecule: Cc1cc(-c2cc3c(cc2Nc2cccc4c2C(=O)N([C@H]2CCC(=O)NC2=O)C4=O)N(C)C(=O)CC3)cn(C)c1=O [Compound 35]
10 to 100 nM

Give DC50 for the following molecule: COc1cc(-c2cc3c(cc2Nc2cccc4c2C(=O)N(C2CCC(=O)NC2=O)C4=O)N(C)C(=O)CC3)c(F)cn1 (centres unmarked) [Compound 51]
10 to 100 nM

Give DC50 for the following molecule: CN1C(=O)CCc2cc(C3CC3)c(Nc3cccc4c3C(=O)N(C3CCC(=O)NC3=O)C4=O)cc21 (centres unmarked) [Compound 34]
10 to 100 nM

Give DC50 for the following molecule: Cc1csc(-c2cc3c(cc2Nc2cccc4c2C(=O)N(C2CCC(=O)NC2=O)C4=O)N(C)C(=O)CC3)n1 (centres unmarked) [Compound 39]
10 to 100 nM

Give DC50 for the following molecule: Cc1cc(-c2cc3c(cc2Nc2cccc4c2C(=O)N([C@]2(C)CCC(=O)NC2=O)C4=O)N(C)C(=O)CC3)ccn1 [Compound 53]
> 100 nM

* * *

# assay target: WIZ (Widely interspaced zinc finger) (Homo sapiens (Human), UniProt O95785+Q96SW2)
# test method notes: HUDEP-2 WIZ HiBiT degradation assay
# Format: cell-based
# particulars: HUDEP-2 WIZ HiBiT cells, 24 hours treatment, luminescence; read-out: WIZ EC50
quantity: DC50

Worked examples, 5 compounds total:
| compound | quantity | recorded measurement |
| --- | --- | --- |
| COc1ccc(-c2cc3ncn(C)c3cc2Nc2cccc3c2C(=O)N(C2CCC(=O)NC2=O)C3=O)cc1F (stereo not drawn) [Compound 5] | DC50 | 0.01 to 0.1 µM |
| Cc1cc(-c2cc3nc(C)n(C)c3cc2Nc2cccc3c2C(=O)N(C2CCC(=O)NC2=O)C3=O)ccn1 (stereo not drawn) [Compound 1] | DC50 | 0.01 to 0.1 µM |
| O=C1CCC(N2C(=O)c3cccc(Nc4c(Oc5ccccc5Cl)ccc5c4cnn5C4CCOCC4)c3C2=O)C(=O)N1 (stereo not drawn) [Compound 13] | DC50 | 0.01 to 0.1 µM |
| Cc1cc(-c2cc3c(cnn3C)cc2Nc2cccc3c2C(=O)N([C@H]2CCC(=O)NC2=O)C3=O)ccn1 [Compound 42] | DC50 | > 0.1 µM |
| Cc1cc(-c2cc3ncn(C4CC4)c3cc2Nc2cccc3c2C(=O)N(C2CCC(=O)NC2=O)C3=O)ccn1 (stereo not drawn) [Compound 2] | DC50 | < 0.01 µM |

# context switch: different compound, same DC50
Lab note: WIZ (Widely interspaced zinc finger) (Homo sapiens (Human), UniProt O95785+Q96SW2) assay, enter DC50 for Cc1cc(-c2cc3c(cnn3[C@@H]3CCOC3)cc2Nc2cccc3c2C(=O)N([C@H]2CCC(=O)NC2=O)C3=O)ccn1 [Compound 44] here
0.01 to 0.1 µM
